Target: dopamine transporter (DAT) (Rattus norvegicus (Rat), UniProt P23977)
Sequence (P23977 whole entry): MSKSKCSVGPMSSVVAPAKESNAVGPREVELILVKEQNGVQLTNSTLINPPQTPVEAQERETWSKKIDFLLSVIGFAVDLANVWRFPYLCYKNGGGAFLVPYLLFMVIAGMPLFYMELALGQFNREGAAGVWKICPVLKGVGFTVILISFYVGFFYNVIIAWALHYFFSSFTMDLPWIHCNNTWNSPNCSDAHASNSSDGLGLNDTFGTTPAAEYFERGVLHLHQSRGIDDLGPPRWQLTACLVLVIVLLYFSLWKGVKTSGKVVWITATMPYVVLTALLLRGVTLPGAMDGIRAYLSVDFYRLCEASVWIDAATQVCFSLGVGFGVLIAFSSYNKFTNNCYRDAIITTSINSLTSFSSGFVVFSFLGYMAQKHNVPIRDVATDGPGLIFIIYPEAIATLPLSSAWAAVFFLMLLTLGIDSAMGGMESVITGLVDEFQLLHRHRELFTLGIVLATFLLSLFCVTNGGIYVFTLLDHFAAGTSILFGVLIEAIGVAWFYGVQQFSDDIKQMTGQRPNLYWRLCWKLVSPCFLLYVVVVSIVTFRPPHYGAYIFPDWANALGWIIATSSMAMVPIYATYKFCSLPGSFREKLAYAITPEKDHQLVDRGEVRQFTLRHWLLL
Experiment: [3H]dopamine (DA) uptake inhibition in rat brain (caudate) synaptosomes
Assay type: biochemical
Conditions: mean ± S.D.; n = 3; read-out: DAT Uptake Emax
Each entry below lists one item and its recorded Emax value.
Give a bare numeral; the unit % is implied.

c1ccc(C(CNc2nc(-c3ccc4nccn4c3)nc3ccccc23)c2ccc[nH]2)cc1 (stereo not drawn) ... 64
OC(CNc1nc(-c2ccc3[nH]ccc3c2)nc2ccccc12)(c1ccccc1)c1ccccc1 ... 70

Requested field: Emax. Item: c1ccc(C(CNc2nc(-c3cnc4nccn4c3)nc3ccccc23)c2ccccn2)cc1 (stereo not drawn)
71

Recorded values, source patent US10087148B2.
